# Tested on: Chlorella protothecoides
# testSummary: Effect of hormone concentrations on growth rate of Chlorella protothecoides, heterotrophic
# Assay type: cell-based
# conditionsUsed: 1 ng, 48 hours, control 1.54
observationType: growth rate

smilesEntry: c1coc(CNc2ncnc3[nH]cnc23)c1
reportedMeasurement: 1.44
//
smilesEntry: O=C(O)Cc1cccc2ccccc12
reportedMeasurement: 1.62
//
smilesEntry: C=C1C[C@]23C[C@@]1(O)CC[C@H]2[C@@]12C=C[C@H](O)[C@@](C)(C(=O)O1)[C@H]2[C@@H]3C(=O)O
reportedMeasurement: 1.46
//
smilesEntry: c1ccc(CNc2ncnc3nc[nH]c23)cc1
reportedMeasurement: 1.50
//
smilesEntry: O=C(O)COc1ccc(Cl)cc1Cl
reportedMeasurement: 1.43
//
smilesEntry: O=C(O)Cc1c[nH]c2ccccc12
reportedMeasurement: 1.49
